SYSTEM_UNDER_TEST: T1, cell surface plectin on ovarian cancer cells (SKOV3, OVCAR8) (human, UniProt Q15149 1-4684)
T1 construct: whole, on cells; Endogenous plectin mislocalized to the cell surface; also called Plectin-1
EXPERIMENTAL_PROTOCOL: cell binding assay on FT132 cells (healthy fallopian tube cells), DiR fluorescence at 780 nm, 1 h at 37 C; fit of the SPECIFIC curve; no unit beside the number, concentration axis in nM
Where no end group is shown, it is not given here. Side-chain parts run from the residue outwards. The star is where a group is joined. DSPE = CCCCCCCCCCCCCCCCCC(=O)OC[C@H](COP(=O)(O)OCCN*)OC(=O)CCCCCCCCCCCCCCCCC; FAM = 5(6)-carboxyfluorescein
PARAMETER_MEASURED: pKd
A value of pKd is the negative decimal logarithm of a concentration given in moles per litre.

// query Please look up its pKd: KTLLPTPGGSK(FAM)C([maleimide-PEG3400-DSPE])-NH2 (also: displayed on liposomes, Tested only as a multivalent display on liposomes (about 110-120 nm), not as free peptide; also called Plectin Targeted Peptide; PTP-PEG3400-DSPE)
// result 10.22
